- Test system: SN12C
- test_description: NCI tumour cell line growth inhibition, 48 h
Calls of active or inactive are those of the source. No stated cut-off is given here; in the data, active = GI50 up to about 1.1 µM and inactive = higher.
Classes used: 1 (yes) (active), 0 (no) (inactive)

- compound: "O=C1O[C@@H](c2ccccc2)C[C@@H]1CN1CCOCC1"
  target: "SN12C"
  label: "0 (no)"
- compound: "Cc1ccc(C2=C(c3ccccc3)C(O)(c3ccc(C)cc3)C(c3ccccc3)=C2c2ccc(C)cc2)cc1"
  target: "SN12C"
  label: "0 (no)"
- compound: "COc1ccc(C(C#N)NNc2nc(C)cc(O)n2)cc1OC (stereo unspecified)"
  target: "SN12C"
  label: "0 (no)"
- compound: "C=CCCCCNC(=O)C[C@@H]1C2=C(CC[C@H]1O[Si](C)(C)C(C)(C)C)N1C(=O)CCC/C=C\\C1C2 (stereo partly specified)"
  target: "SN12C"
  label: "0 (no)"
- compound: "NC1=NNC(=O)c2nnc3c(C(=O)O)cnn3c2S1"
  target: "SN12C"
  label: "0 (no)"
- compound: "Clc1cccc(Cl)c1C(Nc1nncs1)Nc1nncs1"
  target: "SN12C"
  label: "0 (no)"
- compound: "CC(N)Cc1ccc(Cl)c(Cl)c1 (stereo unspecified)"
  target: "SN12C"
  label: "0 (no)"
- compound: "CSc1nc2c(nc(N)n2C2OCC(O)C(O)C2O)c(=O)[nH]1 (stereo unspecified)"
  target: "SN12C"
  label: "0 (no)"
- compound: "Clc1ccc(/C=C/c2nc(-c3ccccc3)cn3c2nc2ccccc23)cc1Cl"
  target: "SN12C"
  label: "0 (no)"
- compound: "Cc1c2ccncc2c(C)c2c1[nH]c1ccc(OCCN(C)C)cc12"
  target: "SN12C"
  label: "1 (yes)"
- compound: "Cc1c(C#N)c2ccccc2c2nc3ccccc3n12"
  target: "SN12C"
  label: "0 (no)"

====

- Tested on: OVCAR-8
- test_description: NCI tumour cell line growth inhibition, 48 h
Calls of active or inactive are those of the source. Cut-off read from the data, not from the text of the source: active = GI50 up to about 1.1 µM and inactive = higher.

- molecule: "COC(=O)[C@@H]1CN(C(=O)c2ccccc2)C(=O)N1C(=O)OCc1ccccc1"
  GI50: "> 100 µM (inactive)"
- molecule: "CC(C)=CCNc1nc(Cl)nc2[nH]cnc12"
  GI50: "46.5 µM (inactive)"
- molecule: "C[C@]12CCC(=O)C=C1C[C@@H](O)[C@@H]1[C@@H]2CC[C@@]2(C)[C@H]1CC[C@]2(C)O"
  GI50: "> 100 µM (inactive)"
- molecule: "CN(CCc1ccc(Cl)c(Cl)c1)CCN(C)CCN1CCCC1"
  GI50: "21.7 µM (inactive)"
- molecule: "Clc1ccccc1CN1COc2c(cc(Cl)c3cccnc23)C1"
  GI50: "2.85 µM (inactive)"

====

- System: TK-10
- test_description: NCI tumour cell line growth inhibition, 48 h
Activity calls are given as the source filed them. Rule as the data show it: active = GI50 up to about 1.1 µM and inactive = higher.

- molecule: "CCOc1ccc(NC(=O)C(=O)CC(=O)C2=C(C)Nc3ccccc3S2)cc1"
  GI50: "> 50 µM (inactive)"
- molecule: "Cc1ccc(NC(=O)/C(Cc2cc(=O)oc3cc(O)ccc23)=N\\NC(=O)C[N+](C)(C)C)cc1C"
  GI50: "> 100 µM (inactive)"
- molecule: "CN/N=C(/CCN1CCCC1)CC(c1ccccc1)c1c(O)c2ccccc2oc1=O (stereo not given)"
  GI50: "> 100 µM (inactive)"
- molecule: "COc1ccccc1CC1(O)OC(=O)c2ccccc21 (stereo not given)"
  GI50: "> 100 µM (inactive)"
- molecule: "Cc1cc(N(CCC#N)CCC#N)ccc1/C=C1N=C(/C=C\\c2ccccc2)N(c2ccc(Cl)cc2)C\\1=O"
  GI50: "> 53.3 µM (inactive)"
- molecule: "COc1cc(C=O)c(-c2cc(OC)c(OC)cc2C=O)cc1OC"
  GI50: "> 100 µM (inactive)"
- molecule: "CCCCCCCCCCCCCCCCCCOCC(C[N+]1(C)CCC(O)CC1)OCC (stereo not given)"
  GI50: "3.92 µM (inactive)"
- molecule: "O=[N+]([O-])c1ccc(Cl)cc1C1ON=C(c2ccccc2)N1C12CC3CC(CC(C3)C1)C2 (stereo not given)"
  GI50: "> 100 µM (inactive)"
- molecule: "CCOC(=O)CC(=O)C(=O)NN=C1NCCCN1"
  GI50: "> 100 µM (inactive)"
- molecule: "CCOC(=O)c1ccc(/N=C\\c2ccc(N(CCC#N)CCC#N)cc2)cc1"
  GI50: "39.6 µM (inactive)"
- molecule: "CC(=O)O[C@H]1CCC2[C@@H]3CCC4Nc5c(cnn5-c5ccccc5)C[C@]4(C)C3CC[C@@]21C (stereo not given in full)"
  GI50: "19.2 µM (inactive)"
- molecule: "CC[As](CC)SCC1OC(OC(C)=O)C(OC(C)=O)C(OC(C)=O)C1OC(C)=O (stereo not given)"
  GI50: "16.6 µM (inactive)"
- molecule: "c1ccc2sc(C3(N4CCC5(CC4)OCCO5)CCCCC3)cc2c1"
  GI50: "90.6 µM (inactive)"
- molecule: "CC(C)N1[C@@H]2CCCC[C@H]2N(C(C)C)[PH]1=O"
  GI50: "> 100 µM (inactive)"
- molecule: "CC(=O)OCC1OC(n2c(=O)n(-c3ccccc3)c(=O)c3ccccc32)C(OC(C)=O)C(OC(C)=O)C1OC(C)=O (stereo not given)"
  GI50: "> 100 µM (inactive)"
- molecule: "O=C(c1ccco1)N(C(=S)N1CCN(c2ccccn2)CC1)C1CCCCC1"
  GI50: "> 100 µM (inactive)"
- molecule: "COc1ccc(C2=C(Cl)c3cc(OC)c(OC)cc3C2Cl)cc1OC (stereo not given)"
  GI50: "19.4 µM (inactive)"
- molecule: "c1ccc(COc2cccc3ccc[n+](Cc4ccccc4)c23)cc1"
  GI50: "12.1 µM (inactive)"
- molecule: "O=C1O[C@@H](c2ccccc2)C[C@@H]1CN1CCOCC1"
  GI50: "> 100 µM (inactive)"
- molecule: "COc1ccc(-c2cc(N3CCN(c4ccccc4)CC3)c(C#N)c(=O)o2)cc1"
  GI50: "22.4 µM (inactive)"
- molecule: "Clc1ccccc1C(Nc1cnccn1)Nc1cnccn1"
  GI50: "> 100 µM (inactive)"
- molecule: "O=c1c2cc([N+](=O)[O-])ccc2n(Cc2ccccc2)n1Cc1ccccc1"
  GI50: "22.8 µM (inactive)"
- molecule: "COc1ccc2cc(C(=O)NCCCNC(=O)c3ccc4cc(OC)ccc4c3)ccc2c1"
  GI50: "45.4 µM (inactive)"
- molecule: "COc1cc(NS(C)(=O)=O)ccc1NCc1c2ccccc2nc2ccccc12"
  GI50: "> 100 µM (inactive)"
- molecule: "CNC(=O)N(CCCCC(NC(C)=O)C(=O)NCc1ccccc1)Cc1ccccc1 (stereo not given)"
  GI50: "> 100 µM (inactive)"
- molecule: "O=S(=O)(/C=C/CS(=O)(=O)c1ccccc1)c1ccccc1"
  GI50: "43.7 µM (inactive)"
- molecule: "CCOC(=O)c1cc2c(C(=O)c3ccc([N+](=O)[O-])cc3)c(C(C)=O)ccc2[nH]1"
  GI50: "22.2 µM (inactive)"
- molecule: "CC1(C)C2CC1C(/C=N\\OCC(=O)O)=CC2=O (stereo not given)"
  GI50: "> 100 µM (inactive)"
- molecule: "CCOC(=O)N(NC(=O)NC(C)C)c1ccccc1"
  GI50: "> 100 µM (inactive)"
- molecule: "Cn1c(=O)nc2n(-c3cccc(Cl)c3)c3ccccc3nc-2c1=O"
  GI50: "17 µM (inactive)"
- molecule: "CCCCCCc1cc2cc(-c3cn4c(n3)sc3ccccc34)c(=O)oc2cc1O"
  GI50: "> 100 µM (inactive)"
- molecule: "CC(C)=CCNc1nc(Cl)nc2[nH]cnc12"
  GI50: "71.6 µM (inactive)"
- molecule: "COc1ccc(C(=O)C(c2ccc(OC)cc2)C2(O)C(=O)Nc3ccc([N+](=O)[O-])cc32)cc1 (stereo not given)"
  GI50: "> 100 µM (inactive)"
- molecule: "C[C@H]1O[C@@H](O[C@H]2[C@@H](O)C[C@H](O[C@H]3[C@@H](O)C[C@H](O[C@H]4CC[C@@]5(C)[C@H](CC[C@@H]6[C@@H]5CC[C@]5(C)[C@@H](C7=CC(=O)OC7)[C@@H](O)C[C@]65O)C4)O[C@@H]3C)O[C@@H]2C)C[C@H](O)[C@@H]1O"
  GI50: "0.254 µM (active)"
- molecule: "OCC(S)CS.[Bi] (stereo not given)"
  GI50: "17.8 µM (inactive)"
- molecule: "CC1=CCS(=O)(=O)C1C(O)C1=C(C)CCCC1(C)C (stereo not given)"
  GI50: "> 100 µM (inactive)"
- molecule: "C=CN1C(=O)OC[C@@H]1c1ccccc1"
  GI50: "> 100 µM (inactive)"
- molecule: "O=C(Cc1ccccc1)NNc1nc(NNC(=O)c2ccncc2)nc(Nc2ccc(Cl)cc2)n1"
  GI50: "> 10 µM (inactive)"
- molecule: "C/C(=C\\COP(=O)(O)OP(=O)(O)O)CCCOCc1ccccc1"
  GI50: "> 100 µM (inactive)"
- molecule: "O=C(Nc1ccc(Cl)cc1C(F)(F)F)C(=O)Nn1c(S)nc2ccccc2c1=O"
  GI50: "> 100 µM (inactive)"
